# target-of-assay: NF-kB p50 homodimer (UniProt P19838)
# Sequence: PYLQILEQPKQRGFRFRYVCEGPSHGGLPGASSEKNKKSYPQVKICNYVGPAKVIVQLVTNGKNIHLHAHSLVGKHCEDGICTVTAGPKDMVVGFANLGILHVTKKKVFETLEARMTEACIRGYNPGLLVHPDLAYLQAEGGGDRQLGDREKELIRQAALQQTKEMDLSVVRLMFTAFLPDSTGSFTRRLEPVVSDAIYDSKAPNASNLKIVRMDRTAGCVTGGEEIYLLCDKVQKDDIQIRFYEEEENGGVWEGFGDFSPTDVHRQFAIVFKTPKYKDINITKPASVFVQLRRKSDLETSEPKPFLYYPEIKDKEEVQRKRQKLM
# method: SPR
# condition-info: EMSA: 10 mM Tris-HCl pH 7.5, 50 mM NaCl, 1 mM DTT, 1 mM EDTA, BSA (printed 10 mg/mL), 1% NP-40, 5% glycerol, poly(dI-dC), 20 C 45 min; SPR: 10 mM Tris-HCl pH 7.
observed-property: pKd
Reminder that pKd is minus the log10 of a molar concentration.

Input line: Please supply the value of reported pKd for the item CCTACCAAGTCTGAGGGGACTTTCCCAGGC (double strand) [DUPLEX-kB(SPR-BIO)]
Output line: 8.71

---

# target-of-assay: NF-kB p50 homodimer (UniProt P19838)
# Sequence: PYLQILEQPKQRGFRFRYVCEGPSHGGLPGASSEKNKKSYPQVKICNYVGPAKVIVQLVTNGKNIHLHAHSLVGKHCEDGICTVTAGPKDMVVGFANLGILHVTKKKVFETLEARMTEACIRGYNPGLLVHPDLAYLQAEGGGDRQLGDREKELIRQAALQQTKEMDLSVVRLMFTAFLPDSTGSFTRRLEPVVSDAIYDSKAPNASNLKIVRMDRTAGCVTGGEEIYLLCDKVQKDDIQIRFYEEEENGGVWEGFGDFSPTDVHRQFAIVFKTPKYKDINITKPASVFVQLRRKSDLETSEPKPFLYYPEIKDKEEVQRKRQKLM
# method: SPR
# condition-info: cisplatin adducts, 1 per duplex, global; EMSA: 10 mM Tris-HCl pH 7.5, 50 mM NaCl, 1 mM DTT, 1 mM EDTA, BSA (printed 10 mg/mL), 1% NP-40, 5% glycerol, poly(dI-dC), 20 C 45 min; SPR: 10 mM Tris-HCl pH 7.
observed-property: Kd (nM)
State the answer as a number, implicitly in nM.

Input line: Please supply the value of reported Kd for the item CCTACCAAGTCTGAGGGGACTTTCCCAGGC (double strand) [DUPLEX-kB(SPR-BIO) cisplatin]
Output line: 2.38
